koff overview
Target: T1, recombinant human VEGF110 (human, UniProt P15692-4 27-136, limits assumed)
T1 construct: Made in house; also called hVEGF110
T1 sequence (looked up): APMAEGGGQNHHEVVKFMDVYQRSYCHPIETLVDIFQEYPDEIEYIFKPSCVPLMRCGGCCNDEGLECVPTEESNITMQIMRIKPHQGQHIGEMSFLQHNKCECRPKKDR
Assay: Biacore SPR, VEGF immobilized, pH 5
Your answer should be a plain number; it is taken to be in s⁻¹.

* 567-min (scFv, also called Protein Nr; 884) scFv: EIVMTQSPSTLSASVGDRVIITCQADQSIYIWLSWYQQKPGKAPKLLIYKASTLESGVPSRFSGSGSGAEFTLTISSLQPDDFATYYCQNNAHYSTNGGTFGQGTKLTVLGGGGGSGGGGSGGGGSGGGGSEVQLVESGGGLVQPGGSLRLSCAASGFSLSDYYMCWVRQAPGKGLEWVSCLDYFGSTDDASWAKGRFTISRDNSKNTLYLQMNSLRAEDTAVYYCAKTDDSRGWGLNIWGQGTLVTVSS | 3.82e-05
* 509-min (scFv, VL and VH tied by name; also called Protein Nr; 854) scFv: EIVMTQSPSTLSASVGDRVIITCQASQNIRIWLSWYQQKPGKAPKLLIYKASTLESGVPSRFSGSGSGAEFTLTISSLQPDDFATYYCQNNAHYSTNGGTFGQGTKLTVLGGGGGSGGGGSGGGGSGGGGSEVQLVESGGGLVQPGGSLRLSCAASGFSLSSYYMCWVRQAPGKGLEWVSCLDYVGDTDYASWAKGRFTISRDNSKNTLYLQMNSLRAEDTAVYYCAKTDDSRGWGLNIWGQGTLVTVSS | 0.000474
* 511-min (scFv, VL and VH tied by name; also called Protein Nr) scFv: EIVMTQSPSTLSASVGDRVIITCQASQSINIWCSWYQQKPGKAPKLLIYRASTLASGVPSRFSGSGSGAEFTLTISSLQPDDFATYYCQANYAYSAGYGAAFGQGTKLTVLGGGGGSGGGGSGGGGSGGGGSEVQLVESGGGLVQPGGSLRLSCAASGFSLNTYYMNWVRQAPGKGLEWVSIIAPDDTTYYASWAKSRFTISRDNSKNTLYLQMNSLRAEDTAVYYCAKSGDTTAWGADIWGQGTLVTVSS | 0.000898

Q: Return koff (reported value) for this binder: 578-max (scFv, also called EP578max; #821) scFv: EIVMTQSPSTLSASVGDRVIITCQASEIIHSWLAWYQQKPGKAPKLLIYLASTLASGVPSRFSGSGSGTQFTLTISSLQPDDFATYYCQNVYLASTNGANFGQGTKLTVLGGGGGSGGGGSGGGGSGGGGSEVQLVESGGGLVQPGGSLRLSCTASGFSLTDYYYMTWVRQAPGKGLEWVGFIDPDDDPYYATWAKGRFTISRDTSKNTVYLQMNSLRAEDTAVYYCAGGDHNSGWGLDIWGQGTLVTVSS
A: 0.000722

Q: Supply recorded koff for 511-max (scFv, also called ESBA802) scFv: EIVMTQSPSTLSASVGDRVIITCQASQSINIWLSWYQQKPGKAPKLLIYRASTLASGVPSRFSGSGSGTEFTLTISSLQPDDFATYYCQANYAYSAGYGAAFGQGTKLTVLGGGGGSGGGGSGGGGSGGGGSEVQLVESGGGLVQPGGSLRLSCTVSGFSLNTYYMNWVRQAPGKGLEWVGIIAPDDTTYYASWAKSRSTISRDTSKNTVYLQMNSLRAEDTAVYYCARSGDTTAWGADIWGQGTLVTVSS here.
A: 7.96e-05

Q: Note down koff recorded for 578-min (scFv, also called EP578 min; Protein Nr; 820) scFv: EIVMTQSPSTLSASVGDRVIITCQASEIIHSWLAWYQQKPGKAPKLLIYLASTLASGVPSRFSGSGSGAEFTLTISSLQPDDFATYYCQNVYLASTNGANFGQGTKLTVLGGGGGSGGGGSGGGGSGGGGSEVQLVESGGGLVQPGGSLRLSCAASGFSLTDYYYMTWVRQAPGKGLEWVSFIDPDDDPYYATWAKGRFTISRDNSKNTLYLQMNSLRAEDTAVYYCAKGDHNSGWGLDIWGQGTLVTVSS
A: 0.0104
